- methodDescription: Stability in human liver microsomes
- Type: in vitro ADME
- conditionSummary: both sexes, pooled human liver microsomes, 0.5 mg/mL protein, 3 μM compound, pH 7.4, 37° C., NADPH, read-out: T ½ human liver microsomes
- Protocol: Pooled human or rat liver microsomes (pooled male and female) were prepared and stored at −80° C. prior to use. […] The final incubation volume was 25 μL. […] Following protein precipitation, the sample supernatants were combined in cassettes of up to 4 compounds and analysed using Cyprotex generic LC-MS/MS conditions. […] From a plot of ln peak area ratio (compound peak area/internal standard peak area) against time, the gradient of the line is determined. […]
experimentalReadout: half-life at 3 μM (min)

Please review the entries below; each comes with its answer.
lineNotation: COc1cc(-c2nnc(/C=C/c3nnc(-c4ccncc4)n3-c3ccccc3Cl)o2)ccn1
half-life at 3 μM (min): 37.6
--
lineNotation: CCOc1ccc(-c2nnc(/C=C/c3nnc(-c4ccnc(OC)c4)o3)n2-c2ccccc2Cl)nc1
half-life at 3 μM (min): 212
--
lineNotation: COc1cc(-c2nnc(/C=C/c3nnc(-c4ccc(S(C)(=O)=O)cn4)n3-c3ccccc3Cl)o2)ccn1
half-life at 3 μM (min): 37.1

a: CS(=O)(=O)c1ccc(-c2nnc(/C=C/c3nnc(-c4ccc(Cl)cc4)o3)n2-c2ccccc2Cl)nc1
b: COc1cc(-c2nnc(/C=C/c3nnc(-c4ccc(S(C)(=O)=O)cc4)n3-c3ccccc3Cl)o2)ccn1
Task: Of a versus b , which is the one with smaller reported half-life at 3 μM? Answer by quoting the chosen item's label.
Result: b

a: COc1cc(-c2nnc(/C=C/c3nnc(-c4ccc(Cl)cn4)n3-c3ccccc3Cl)o2)ccn1
b: Oc1cc(-c2nnc(/C=C/c3nnc(-c4ccc(F)cc4)n3-c3ccccc3Cl)o2)ccn1
Task: Of a versus b , which is the one with smaller reported half-life at 3 μM? Answer by quoting the chosen item's label.
Result: a

I: COc1cc(-c2nnc(/C=C/c3nnc(-c4ccncn4)n3-c3ccccc3Cl)o2)ccn1
II: COc1cc(-c2nnc(/C=C/c3nnc(-c4nc(C)no4)n3-c3ccccc3Cl)o2)ccn1
Task: Of I versus II , which is the one with smaller reported half-life at 3 μM? Answer by quoting the chosen item's label.
Result: II
(II: 5.41 min, I: 59.6 min)
